assay: proteolytic resistance in pig kidney homogenate; assay type: in vitro ADME; conditions: pig, pig kidney homogenate, pH 7.4, 37° C., read-out: Degradation after 3 h (%)
recorded-endpoint: metabolised at 3 h, 0.2 μmol angiotensin/mg kidney homogenate (%)

[[record]]
molecule = "CC[C@H](C)[C@H](NC(=O)[C@H](Cc1ccc(O)cc1)NC(=O)[C@@H](NC(=O)[C@H](CCCNC(=N)N)NC(=O)[C@@H](N)CC(=O)O)C(C)C)C(=O)N[C@@H](Cc1cnc[nH]1)C(=O)N1CCC[C@H]1C(=O)N[C@@H](Cc1ccccc1)C(=O)O [Ang(1-8), Asp-Arg-Val-Tyr-Ile-His-Pro-Phe, reference compound]"
number = 100

[[record]]
molecule = "CC[C@H](C)[C@H](NC(=O)[C@H](Cc1ccc(O)cc1)NC(=O)[C@@H](NC(=O)[C@H](CCCNC(=N)N)NC(=O)[C@@H](N)CC(=O)O)C(C)C)C(=O)N[C@@H](Cc1c[nH]cn1)C(=O)N1CCC[C@H]1C(=O)O [Ang(1-7), DRVYIHP, reference compound]"
number = 100

[[record]]
molecule = "CC[C@H](C)[C@@H]1NC(=O)[C@H](NC(=O)[C@@H](NC(=O)[C@H](CCCNC(=N)N)NC(=O)[C@@H](N)CC(=O)O)C(C)C)CSC[C@@H](C(=O)O)NC(=O)[C@H](Cc2c[nH]cn2)NC1=O [[Cyc^4-7]Ang(1-7), Asp-Arg-Val-Ala-Ile-His-Ala]"
number = 91

[[record]]
molecule = "CC[C@H](C)[C@@H]1NC(=O)C(NC(=O)[C@@H](NC(=O)[C@H](CCCNC(=N)N)NC(=O)[C@@H](N)CC(=O)O)C(C)C)C(C)SC[C@@H](C(=O)N[C@@H](Cc2ccccc2)C(=O)O)NC(=O)[C@H](Cc2c[nH]cn2)NC1=O (stereo partly drawn) [[Cyc^4-7]Ang(1-8), Asp-Arg-Val-Abu-Ile-His-Ala-Phe]"
number = 100


----------
assay: proteolytic resistance in pig kidney homogenate; type: in vitro ADME; conditions: pig, pH 7.4, 37° C.
recorded-endpoint: half-life (min)
Dear colleague, please return just the value in min, with no unit written.

**Q:** Kindly indicate its recorded half-life. Item: CC[C@H](C)[C@@H]1NC(=O)C(NC(=O)[C@@H](NC(=O)[C@H](CCCNC(=N)N)NC(=O)[C@@H](N)CC(=O)O)C(C)C)C(C)SC[C@@H](C(=O)N[C@@H](Cc2ccccc2)C(=O)O)NC(=O)[C@H](Cc2c[nH]cn2)NC1=O (stereo partly drawn) [[Cyc^4-7]Ang(1-8), Asp-Arg-Val-Abu-Ile-His-Ala-Phe]
**A:** 7

----------
experiment: proteolytic resistance in pig kidney homogenate; type: in vitro ADME; conditions: pig, tissue homogenate, pH 7.4, 37° C.
recorded-endpoint: half-life (min)
Value expressed in min; do not type the unit.

**Q:** Output measured half-life for this item: CC[C@H](C)[C@@H]1NC(=O)[C@H](NC(=O)[C@@H](NC(=O)[C@H](CCCNC(=N)N)NC(=O)[C@@H](N)CC(=O)O)C(C)C)CSC[C@@H](C(=O)O)NC(=O)[C@H](Cc2c[nH]cn2)NC1=O [[Cyc^4-7]Ang(1-7), Asp-Arg-Val-Ala-Ile-His-Ala]
**A:** 32
